Target sequence: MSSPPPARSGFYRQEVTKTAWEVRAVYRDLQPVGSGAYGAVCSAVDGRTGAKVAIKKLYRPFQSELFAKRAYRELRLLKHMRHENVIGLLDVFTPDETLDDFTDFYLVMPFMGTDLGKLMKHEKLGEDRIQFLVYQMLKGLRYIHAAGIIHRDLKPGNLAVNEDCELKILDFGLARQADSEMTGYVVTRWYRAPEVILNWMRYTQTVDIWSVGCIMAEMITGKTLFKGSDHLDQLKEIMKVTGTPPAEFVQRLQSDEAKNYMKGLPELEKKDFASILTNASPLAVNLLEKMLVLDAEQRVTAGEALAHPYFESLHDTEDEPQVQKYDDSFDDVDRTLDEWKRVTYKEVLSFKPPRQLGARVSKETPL
pIC50: −log10 of the molar value.
Readout: pIC50

As a guide, the following entries are already answered.
>  <Structure notation>
COc1ccc(-n2nc(C(C)(C)C)cc2NC(=O)Nc2ccc(Oc3ccnc(NC(=O)CN4CCOCC4)c3)c(Cl)c2Cl)cc1

>  <pIC50>
7.07

$$$$
>  <Structure notation>
COCC(=O)Nc1cc(Oc2ccc(NC(=O)Nc3cc(C(C)(C)C)nn3-c3ccc(C)cc3)c(F)c2)ccn1

>  <pIC50>
7.39

$$$$
>  <Structure notation>
COCC(=O)Nc1cc(Oc2ccc(NC(=O)Nc3cc(C(C)(C)C)nn3-c3ccc(O)cc3)c(Cl)c2Cl)ccn1

>  <pIC50>
7.33

$$$$
>  <Structure notation>
Cc1ccc(-n2nc(C(C)(C)C)cc2NC(=O)Nc2ccc(OCc3ccnc(NC(=O)N4CCCC4)c3)c(Cl)c2Cl)cc1

>  <pIC50>
5.36

$$$$

P. CN(C)[C@H]1CCN(C(=O)Nc2cc(Oc3ccc(NC(=O)Nc4cc(C(C)(C)C)nn4-c4ccc(CO)cc4)c(Cl)c3Cl)ccn2)C1
Q. Cc1ccc(-n2nc(C(C)(C)C)cc2NC(=O)Nc2ccc(Oc3ccnc(NC(=O)N4CCCC4)c3)c(Cl)c2Cl)cc1
Could you determine which record has the numerically smaller pIC50? Candidates: P and Q Provide the label of your selected option as the answer.
Q

* * *

Reported values of MTT Assay (Viability) 24 h d-U937, percentage loss of cell viability for individual entries
Tested on: Differentiated U937 cells
Test: Cell viability MTT assay
Format: cell-based, human
Details: 24 h in 10% FCS; negative = apparent increase in viability
Field format: number, assumed %, no unit text.

>  <Structure notation>
COc1ccc(-n2nc(C(C)(C)C)cc2NC(=O)Nc2ccc(Oc3ccnc(NC(=O)N4CCCC4)c3)c(Cl)c2Cl)cc1

>  <Recorded measurement>
27.2

$$$$
>  <Structure notation>
COCCNC(=O)Nc1cc(Oc2ccc(NC(=O)Nc3cc(C(C)(C)C)nn3-c3ccc(OC)cc3)c(Cl)c2Cl)ccn1

>  <Recorded measurement>
40.9

$$$$
>  <Structure notation>
CNC(=O)Nc1cc(Oc2ccc(NC(=O)Nc3cc(C(C)(C)C)nn3-c3ccc(C)cc3)c(Cl)c2Cl)ncn1

>  <Recorded measurement>
22.5

$$$$
>  <Structure notation>
Cc1ccc(-n2nc(C3(C)CCCCC3)cc2NC(=O)Nc2ccc(Oc3ccnc(NC(=O)N4CCCC4)c3)c(Cl)c2Cl)cc1

>  <Recorded measurement>
5.5

$$$$
>  <Structure notation>
CN(C)CCNC(=O)Nc1cc(Oc2ccc(NC(=O)Nc3cc(C(C)(C)C)nn3-c3ccc(CO)cc3)c(Cl)c2Cl)ccn1

>  <Recorded measurement>
94.1

$$$$
>  <Structure notation>
CN(C)[C@H]1CCN(C(=O)Nc2cc(Oc3ccc(NC(=O)Nc4cc(C(C)(C)C)nn4-c4ccc(O)cc4)c(Cl)c3Cl)ccn2)C1

>  <Recorded measurement>
15.7

$$$$
>  <Structure notation>
COCC(=O)Nc1cc(Oc2ccc(NC(=O)Nc3cc(C(C)(C)C)nn3-c3ccc(C)cc3)c3[nH]ncc23)ccn1

>  <Recorded measurement>
64.5

$$$$
>  <Structure notation>
COc1ccc(-n2nc(C(C)(C)C)cc2NC(=O)Nc2ccc(Oc3ccnc(NC(=O)N4CC[C@H](N(C)C)C4)c3)c(Cl)c2Cl)cc1

>  <Recorded measurement>
20.5

$$$$

MTT Assay (Viability) 24 h d-U937, percentage loss of cell viability lookup needed for CNCC(=O)Nc1cc(Oc2ccc(NC(=O)Nc3cc(C(C)(C)C)nn3-c3ccc(CO)cc3)c(Cl)c2Cl)ccn1 , thanks.
85.6

Now the same for CNC(=O)Nc1cc(COc2ccc(NC(=O)Nc3cc(C(C)(C)C)nn3-c3ccc(OC)cc3)c(Cl)c2Cl)ccn1
−4.6

Field entry: COCC(=O)Nc1cc(Oc2ccc(NC(=O)Nc3cc(C(C)(C)C)nn3-c3ccc(C)cc3)cc2Cl)ccn1
30.8

* * *

Target: p38 MAPKα isoform (MAPK14) (Homo sapiens, UniProt Q16539)
Sequence (Q16539 whole entry, canonical isoform): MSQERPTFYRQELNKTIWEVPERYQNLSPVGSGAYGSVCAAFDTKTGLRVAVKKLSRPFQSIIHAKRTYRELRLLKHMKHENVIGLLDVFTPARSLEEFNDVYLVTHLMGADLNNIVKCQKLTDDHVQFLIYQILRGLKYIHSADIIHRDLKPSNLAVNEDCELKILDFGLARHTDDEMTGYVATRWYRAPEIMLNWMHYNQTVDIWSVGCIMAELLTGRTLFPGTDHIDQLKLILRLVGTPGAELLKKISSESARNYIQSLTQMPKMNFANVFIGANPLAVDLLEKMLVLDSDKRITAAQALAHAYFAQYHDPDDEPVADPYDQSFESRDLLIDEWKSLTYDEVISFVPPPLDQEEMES
Experiment: Enzyme inhibition assay (FRET, Z-LYTE), p38 MAPKα via MAPKAP-K2 activation
Conditions: read-out: Enzyme Inhibition IC50 p38α
pIC50: −log10 of the molar value.
Readout: pIC50

>  <Structure notation>
CNC(=O)Nc1nccc(Oc2ccc(NC(=O)Nc3cc(C(C)(C)C)nn3-c3ccc(CO)cc3)c(Cl)c2Cl)n1

>  <pIC50>
7.97

$$$$
>  <Structure notation>
COCC(=O)Nc1cc(Oc2ccc(NC(=O)Nc3cc(C(C)(C)C)nn3-c3ccc(C)cc3)c(Cl)c2Cl)ccn1

>  <pIC50>
7.74

$$$$
>  <Structure notation>
CNC(=O)Nc1cc(Oc2ccc(NC(=O)Nc3cc(C(C)(C)C)nn3-c3ccc(OC)cc3)c3ncccc23)ccn1

>  <pIC50>
7.33

$$$$

I. COCC(=O)Nc1cc(Oc2ccc(NC(=O)Nc3cc(C(C)(C)C)nn3-c3cccc(CO)c3)c(Cl)c2Cl)ncn1
II. COCC(=O)Nc1cc(Oc2ccc(NC(=O)Nc3cc(C(C)(C)C)nn3-c3ccc(CO)cc3)c(Cl)c2Cl)ncn1
III. COCC(=O)Nc1cc(Oc2ccc(NC(=O)Nc3cc(C(C)(C)C)nn3-c3ccc(C)cc3)cc2S(C)(=O)=O)ccn1
Arrange the 3 entries by pIC50 so the values rise. Order the labels as requested and give them as your answer.
III, I, II

* * *

Target: p38 MAPKα isoform (MAPK14) (Homo sapiens, UniProt Q16539)
Construct: purchased Invitrogen
Experiment: Enzyme inhibition assay (FRET, Z-LYTE), p38 MAPKα via MAPKAP-K2 activation
Format: biochemical
Details: read-out: Enzyme Inhibition IC50 p38α
Readout: IC50 (nM)

a. COCC(=O)Nc1cc(Oc2ccc(NC(=O)Nc3cc(C(C)(C)C)nn3-c3ccc(C)cc3)cc2C#N)ccn1 [Example 28]
b. Cc1ccc(-n2nc(C(C)(C)C)cc2NC(=O)Nc2ccc(Oc3cc(NC(=O)NCCN(C)C)ncn3)c(Cl)c2Cl)cc1 [Example 24]
Given the listed items, does a or b have the lesser reported IC50? Write down the label of the entry you select.
b
(b: 5.7 nM, a: 48.3 nM)

1. COc1ccc(-n2nc(C(C)(C)C)cc2NC(=O)Nc2ccc(OCc3ccnc(NC(=O)N4CCCC4)c3)c(Cl)c2Cl)cc1 [Example 20]
2. CN(C)CCCC(=O)Nc1cc(Oc2ccc(NC(=O)Nc3cc(C(C)(C)C)nn3-c3ccc(CO)cc3)c(Cl)c2Cl)ncn1 [Example 22]
Hi there, can you help? I need to know whether 1 or 2 has lower measured IC50. Answer = label.
2

* * *

System: IL-8 release in d-U937 cells
Test: LPS-induced IL-8 release in d-U937 cells
Format: cell-based, human
Details: Homo sapiens, dU937
Readout: IC50 (nM)

Some entries whose results are on file:
>  <Structure notation>
CN(C)CCNC(=O)Nc1cc(Oc2ccc(NC(=O)Nc3cc(C(C)(C)C)nn3-c3ccc(CO)cc3)c(Cl)c2Cl)ncn1

>  <Recorded measurement>
3.1

$$$$
>  <Structure notation>
COCC(=O)Nc1cc(Oc2ccc(NC(=O)Nc3cc(C(C)(C)C)nn3-c3ccc(C)cc3)c(Cl)c2F)ccn1

>  <Recorded measurement>
2.8

$$$$
>  <Structure notation>
CNC(=O)Nc1cc(Oc2ccc(NC(=O)Nc3cc(C(C)(C)C)nn3-c3ccc(OC)cc3)c3cccnc23)ccn1

>  <Recorded measurement>
3.3

$$$$
>  <Structure notation>
COCC(=O)Nc1nccc(Oc2ccc(NC(=O)Nc3cc(C(C)(C)C)nn3-c3ccc(C)cc3)c(Cl)c2Cl)n1

>  <Recorded measurement>
2.3

$$$$
>  <Structure notation>
CNC(=O)Nc1cc(Oc2ccc(NC(=O)Nc3cc(C(C)(C)C)nn3-c3ccc(CO)cc3)c(Cl)c2Cl)ncn1

>  <Recorded measurement>
6.9

$$$$

I. CNC(=O)Nc1cc(Oc2ccc(NC(=O)Nc3cc(C(C)(C)C)nn3-c3ccc(OC)cc3)c3ncccc23)ccn1
II. COCC(=O)Nc1cc(CSc2ccc(NC(=O)Nc3cc(C(C)(C)C)nn3-c3ccc(OC)cc3)c(Cl)c2Cl)ccn1
Hi, I'm comparing I with II and wondering which one has the bigger number for IC50. Any idea? Indicate your choice by writing its label.
II
